system: CAKI-1 renal; assay: NCI tumour cell line growth inhibition, 48 h
observable: TGI

The cases that follow already have their TGI on record.
compound: COc1cc(-c2cc(-c3ccc(N(C)C)cc3)nc(N3CCOCC3)c2C#N)cc(OC)c1OC
TGI: > 33.8 µM

compound: COc1ccc(OC)c(-c2nc3sccn3c2/C=C2/C(=O)Nc3ccc(Cl)cc32)c1
TGI: > 100 µM

compound: CCOC(=O)c1nc2c3c(ncn2n1)Oc1c(c(-c2ccccc2)nn1-c1ccccc1)C3c1ccc(Cl)cc1 (stereo not given)
TGI: > 100 µM

Give TGI (CAKI-1 renal) of the following compound: O=C(c1ccccc1)C1C(C(=O)c2ccccc2)N1Cc1ccccc1 (stereo not given)
> 100 µM

What TGI appears in the records for this compound with CAKI-1 renal? CC(=O)NC1C(CO)O[C@@H]2OC(C)(C)O[C@H]12 (stereo not given in full)
> 100 µM

---

Some compounds, each annotated with its measured TGI.
tested on: LOX IMVI melanoma; test: NCI tumour cell line growth inhibition, 48 h
Return type: number; implicit unit µM.

compound: CC(=O)Oc1ccc(OC(C)=O)c2ccccc12
TGI, µM: 30.7

Consider the record given below.
What measured TGI goes with COc1ccc2c(c1)CCC1C2CC[C@@]2(C)C1CC[C@@]2(O)CNC(=O)/C=C/c1ccc(O)c(OC)c1 (some centres undefined) ?
20.5

---

tested on: SR leukemia; test: NCI tumour cell line growth inhibition, 48 h; in the data active = GI50 below about 0.43 µM; inactive = the rest
Parameter call: string, one of T = active, F = inactive

# example entries with known answers
compound: CN(C)CCCNc1nn2c(=O)c3ccccc3nc2c2ccccc12
group_label: F
//
compound: COc1cc(C)c(C(=O)O[C@H]2[C@H](O[C@H]3[C@@H](O)COC(O[C@H]4C[C@H]5[C@@H]6CC=C7C[C@@H](O)CC[C@]7(C)[C@H]6CC[C@]5(C)[C@H]4[C@H](C)C(=O)CCC(C)C)[C@@H]3OC(C)=O)OC[C@@H](O)[C@@H]2O)c(C)c1 (some centres undefined)
group_label: T
//
compound: O=C1c2ccccc2C(=O)c2c1ccc(C(Br)Br)c2[N+](=O)[O-]
group_label: T
//
compound: CN1/C(=C\C(I)C(I)C2=[N+](C)c3ccccc3C2(C)C)C(C)(C)c2ccccc21 (centres undefined)
group_label: T
//
compound: Nc1ncnc2c1c(C(F)(F)F)cn2[C@@H]1O[C@H](CO)[C@@H](O)[C@H]1O
group_label: T

Answer briefly: the call reported for O=C1c2[nH]cc(CN3CCNCC3)c2C(=O)c2c1c(O)c1ccccc1c2O in this assay.
F

Assay outcome for O=C(c1ccccc1Nc1ccnc(C(F)(F)F)c1)N1CCN(c2cccc(Cl)c2)CC1 : what was it?
F

Look up the recorded call for COc1cc(-c2cc(-c3ccc(N(C)C)cc3)nc(N3CCOCC3)c2C#N)cc(OC)c1OC in this test.
T

Per the records of this test, what outcome belongs to CC(=O)Oc1ccc(OC(C)=O)c2ccccc12 ?
F

---

system: SR leukemia; assay: NCI tumour cell line growth inhibition, 48 h
observable: TGI

# count of solved cases: 2
compound: CC(CCC(=O)O)[C@H]1CCC2[C@H]3C(CC[C@@]21C)[C@@]1(C)CCC(O)C[C@H]1C[C@@H]3O (stereo partly drawn)
TGI: > 100 µM
--
compound: Cc1cc(S(=O)(=O)Nc2nnc3c(C(F)(F)F)cc(Cl)cn23)c(S)cc1Cl
TGI: > 100 µM

Would you kindly look at the next entry?
Report TGI for Cc1ccc(S(=O)(=O)N(/N=C(\N)Oc2ccc(Cl)cc2)C(=N)Oc2ccc(Cl)cc2)cc1 tested on SR leukemia.
> 100 µM
